# System: HK-2
# EXPERIMENT SUMMARY: Cytotoxicity against human HK2 cells assessed as decrease in cell viability at 10 to 100 uM after 72 hrs by CCK8 assay
# Format: cell-based
# CONDITION LABEL: hk-2, 72 h

COMPOUND	Activity
CCCCCCCCCCNCCN[C@@]1(C)C[C@H](O[C@H]2[C@H](Oc3c4cc5cc3Oc3ccc(cc3Cl)[C@@H](O)[C@@H](NC(=O)[C@@H](CC(C)C)NC)C(=O)N[C@@H](CC(N)=O)C(=O)N[C@H]5C(=O)N[C@H]3C(=O)N[C@H](C(=O)N[C@H](C(=O)O)c5cc(O)c(CNCP(=O)(O)O)c(O)c5-c5cc3ccc5O)[C@H](O)c3ccc(c(Cl)c3)O4)O[C@H](CO)[C@@H](O)[C@@H]2O)O[C@@H](C)[C@H]1O [TELAVANCIN]	Non-Toxic
CN[C@H](CC(C)C)C(=O)N[C@H]1C(=O)N[C@@H](CC(N)=O)C(=O)N[C@H]2C(=O)N[C@H]3C(=O)N[C@H](C(=O)N[C@H](C(=O)O)c4cc(O)cc(O)c4-c4cc3ccc4O)[C@H](O)c3ccc(c(Cl)c3)Oc3cc2cc(c3O[C@@H]2O[C@H](CO)[C@@H](O)[C@H](O)[C@H]2O[C@H]2C[C@](C)(N)[C@H](O)[C@H](C)O2)Oc2ccc(cc2Cl)[C@H]1O [VANCOMYCIN]	Toxic
CN[C@H](CC(C)C)C(=O)N[C@H]1C(=O)N[C@@H](CC(N)=O)C(=O)N[C@H]2C(=O)N[C@H]3C(=O)N[C@H](C(=O)N[C@H](C(=O)O)c4cc(O)c(CNCCO[C@@H]5O[C@H](CO)[C@H](O)[C@H](O)[C@H]5O)c(O)c4-c4cc3ccc4O)[C@H](O)c3ccc(c(Cl)c3)Oc3cc2cc(c3O[C@@H]2O[C@H](CO)[C@@H](O)[C@H](O)[C@H]2O[C@H]2C[C@](C)(NCc3ccc(-c4ccc(Cl)cc4)cc3)[C@H](O)[C@H](C)O2)Oc2ccc(cc2Cl)[C@H]1O	Non-Toxic
CN[C@H](CC(C)C)C(=O)N[C@H]1C(=O)N[C@@H](CC(N)=O)C(=O)N[C@H]2C(=O)N[C@H]3C(=O)N[C@H](C(=O)N[C@H](C(=O)O)c4cc(O)c(CNCCO[C@@H]5O[C@H](CO)[C@H](O)[C@H](O)[C@H]5O)c(O)c4-c4cc3ccc4O)[C@H](O)c3ccc(c(Cl)c3)Oc3cc2cc(c3O[C@@H]2O[C@H](CO)[C@@H](O)[C@H](O)[C@H]2O[C@H]2C[C@](C)(NCc3ccc(-c4ccc(C(F)(F)F)cc4)cc3)[C@H](O)[C@H](C)O2)Oc2ccc(cc2Cl)[C@H]1O	Non-Toxic

###

# EXPERIMENT SUMMARY: Clearance in CD1 mouse at 5 mg/kg, iv
# Type: ADME, organism-based
# CONDITION LABEL: in vivo
MEASURE NAME: clearance (mL/min/kg)
Answers are plain numbers, in mL/min/kg.

**Q:** Requested read-out: clearance. Entry: CCCCCCCCCCNCCN[C@@]1(C)C[C@H](O[C@H]2[C@H](Oc3c4cc5cc3Oc3ccc(cc3Cl)[C@@H](O)[C@@H](NC(=O)[C@@H](CC(C)C)NC)C(=O)N[C@@H](CC(N)=O)C(=O)N[C@H]5C(=O)N[C@H]3C(=O)N[C@H](C(=O)N[C@H](C(=O)O)c5cc(O)c(CNCP(=O)(O)O)c(O)c5-c5cc3ccc5O)[C@H](O)c3ccc(c(Cl)c3)O4)O[C@H](CO)[C@@H](O)[C@@H]2O)O[C@@H](C)[C@H]1O
**A:** 5.1
